These data points were gathered from the RNAGym collection of RNA variant scans (doi:10.1126/science.aae0568).

B1: tRNA (parent)
chain: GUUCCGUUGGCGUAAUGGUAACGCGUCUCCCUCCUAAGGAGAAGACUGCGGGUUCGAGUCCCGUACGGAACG

Variants of: B1
ASSAY DETAILS: yeast fitness relative to wild type (ratio to wild type); higher = fitter; tRNA-Arg(CCU), competitive growth, 37 C, YPD
Fewer inactive variants are shown than the library holds.
ATTRIBUTE MEASURED: yeast fitness
Give bare numbers.

Check out these entries, answers already filled in.
A37C A70C: 0.968
A21U G67A: 0.818
U7A C27U C29U G63A: 0.598
G10A C24A G44A: 0.553
A20C A45C C46U: 0.587

Quick one: give me yeast fitness for each item below, same order please.
1. A37C A40C U53C
2. C11G A14U C34A A57G
3. A37G G50A

Result:
[0.526, 0.642, 0.842]

Quick one: give me yeast fitness for each item below, same order please.
1. C4U A21G C22A C46A
2. G23A A43C G44A A65G
3. U32G C62U

Result:
1. 0.563
2. 0.637
3. 0.625

Quick one: give me yeast fitness for each item below, same order please.
1. G6A C11A A57C G68A
2. C5U C24U A36G C46A
3. A15U A65G
4. G6C G50A A70U
5. U28C G44A A57G

Result:
1: 0.549; 2: 0.92; 3: 0.649; 4: 0.633; 5: 0.578
